Catalogue of folding enthalpy readings, one per entry.
# MEASUREMENT_PROTOCOL: folding enthalpy; higher = less favourable; fluorescence melt of hairpins on a sequencing array, two-state fit
# TEST_CONTEXT: sodium 0.088 M

# MONOMER_SEQUENCE, folding enthalpy (kcal/mol)
rows = [
    ("GCAAGTCGAAAGACCTGC (((.(((....))).)))", -29.6),
    ("GTATTTGAAAAAATAC ((((((....))))))", -25.2),
    ("GTTAGAGGAAACTCTGAC ((.((((....)))).))", -31.4),
    ("GGGAAGCCGAAAGGCCCC (((..(((....))))))", -16.3),
    ("GCTGAGCGAAAGCCCTGC ((.(.((....)).).))", -17.7),
    ("GGCAGTTCGAAAGAAGCC (((..(((....))))))", -16.3),
]

----------
# MEASUREMENT_PROTOCOL: melting temperature; fluorescence melt of hairpins on a sequencing array, two-state fit, raised by 9.35 °C to match UV melts
# TEST_CONTEXT: sodium 0.088 M

# MONOMER_SEQUENCE, SCALE_UNIT, Tm
records = [
    ("GCTGGTCGAAAGACAGC (((.(((....))))))", "°C", 54.7),
    ("ATCCTGAAAAGGAT (((((....)))))", "°C", 45.2),
    ("TCTGAGAAATCAGA (((((....)))))", "°C", 33.4),
    ("GCTTTGCGAAAGCCACGC ((.(.((....)).).))", "°C", 37),
    ("GATCGTCCAACGATC ((((((...))))))", "°C", 55.6),
    ("GGCATTGCGAAAGCAGCC (((..(((....))))))", "°C", 50.7),
    ("GATCCTAAAAGGATC ((((((...))))))", "°C", 54.3),
    ("GTCCCCGAAAGGGAGGAC ((((((....)))..)))", "°C", 49.7),
    ("GCTCGCGAAAGCGTGAGC ((((((....)))..)))", "°C", 53.4),
    ("GCCGGGCGAAAGCGCTGC ((.(.((....)).).))", "°C", 43),
    ("GTGCACGGAAACGTGTGC (..((((....))))..)", "°C", 50.2),
    ("GGTACTGAAAAGTACC ((((((....))))))", "°C", 57.4),
]

----------
# MEASUREMENT_PROTOCOL: folding enthalpy; higher = less favourable; fluorescence melt of hairpins on a sequencing array, two-state fit
# TEST_CONTEXT: sodium 0.088 M

# MONOMER_SEQUENCE, SCALE_UNIT, folding enthalpy
data = [
    ("GCTGCGCGAAAGCGATGC ((..(((....)))..))", "kcal/mol", -18.6),
    ("GCCATGCGAAAGCAATGC ((..(((....)))..))", "kcal/mol", -12.6),
    ("GGACAGGGAAACCCGTCC ((((.((....)).))))", "kcal/mol", -34.1),
    ("GATCACCCGAAAGGGATC (((..(((....))))))", "kcal/mol", -14),
    ("GATCAGCGGCCTGATC ((((((....))))))", "kcal/mol", -36.9),
    ("GCAAACGCGAAAGCGTGC (((..(((....))))))", "kcal/mol", -13.7),
    ("GCATACCGAAAGGTTGC (((.(((....))))))", "kcal/mol", -32.3),
    ("GCCTGACGAAAGTCTGGC (((.(((....))).)))", "kcal/mol", -37.2),
    ("GATCCGGCCCGGATC ((((((...))))))", "kcal/mol", -30.7),
    ("GTTCGCGAAAGCGTGAAC ((((((....)))..)))", "kcal/mol", -13),
    ("GGCGCCCCGAAAGGGGCC (((..(((....))))))", "kcal/mol", -7.09),
    ("GTCTCTCGAAAGAGCGAC (((.(((....))).)))", "kcal/mol", -25.6),
    ("GGTTGATCGAAAGATACC (((..(((....))))))", "kcal/mol", -8.74),
    ("GATCTTGGGCAAGATC ((((((....))))))", "kcal/mol", -37.4),
    ("GAAGGGCGAAAGCCGTTC (((.(((....))).)))", "kcal/mol", -22.7),
    ("GCGTGAATACGC ((((....))))", "kcal/mol", -31.3),
    ("GTGGCTGGAAACAACCAC ((((.((....)).))))", "kcal/mol", -34.4),
    ("GTAGACGAAAGTCGTAC ((((((....))).)))", "kcal/mol", -23.6),
    ("GTGGTAGGAAACTACTGC (..((((....))))..)", "kcal/mol", -18.2),
    ("GACCAAACGAAAGTTGTC (((..(((....))))))", "kcal/mol", -13.8),
    ("GTGTCCGAAAGGATTCAC ((((((....)))..)))", "kcal/mol", -16.3),
    ("GATCTGCGTCCAGATC ((((((....))))))", "kcal/mol", -30.1),
    ("GTTATCACGAAAGTGAAC (((..(((....))))))", "kcal/mol", -10.2),
    ("GTCTAACGAAAGTTGGAC (((.(((....))).)))", "kcal/mol", -19.8),
    ("GTGTTCGAAAGAACCCAC ((((((....)))..)))", "kcal/mol", -11.7),
]
